- assayed.target: REV-ERBα LBD (human; residues 281-614 Δ324-422) (Homo sapiens, UniProt P20393, DEL324-422)
- Construct: 6×Histag-REV-ERBα LBD (human; residues 281-614 Δ324-422); made in house; host or cells: Escherichia coli
- Sequence (P20393 with tags, fused parts or gaps DEL324-422): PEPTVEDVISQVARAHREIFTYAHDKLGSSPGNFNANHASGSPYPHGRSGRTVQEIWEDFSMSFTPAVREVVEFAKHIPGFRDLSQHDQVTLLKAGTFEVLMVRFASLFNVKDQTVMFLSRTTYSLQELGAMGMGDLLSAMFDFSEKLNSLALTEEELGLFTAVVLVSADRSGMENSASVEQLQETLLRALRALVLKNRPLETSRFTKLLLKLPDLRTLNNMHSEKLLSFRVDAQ
- Sequence (Q9Y618 2335-2356 partner limits assumed): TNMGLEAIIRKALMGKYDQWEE
- assay.procedure: TR-FRET corepressor interaction assay (REV-ERBα LBD, FITC-SMRT peptide)
- Format: biochemical
- condition.label: Table 2, read-out: REVERBα agonism (EC50 class, FRET assay)
metric.name: EC50

• CC(C)(C)Cn1cc([C@H](NS(=O)(=O)C2CC2)C(F)(F)F)c2cc(C(F)(F)F)c(-c3ccccc3C(F)(F)F)cc21 = 500 to 3000 nM
• CC(C)(C)Cn1cc(CCNS(=O)(=O)C2CC2)c2cc(F)c(-c3ccccc3C(F)(F)F)cc21 = < 500 nM
• CC(C)Cn1cc(CCNS(=O)(=O)N(C)C)c2ccc(-c3cccc(C#N)c3)cc21 = < 500 nM
• CC(C)Cn1cc(CCNS(=O)(=O)N(C)C)c2ccc(C3CCCCC3)cc21 = < 500 nM
• CC(C)Cc1cn(C2CCN(S(=O)(=O)C(C)C)C2)c2ccc(-c3ccncc3)cc12 (centres unmarked) = 500 to 3000 nM
• CC(C)Cn1cc(CCNS(=O)(=O)N(C)C)c2ccc(Cl)cc21 = < 500 nM
• O=S(=O)(NCc1cn(CC(C(F)(F)F)C(F)(F)F)c2cc(-c3ccncc3Cl)c(F)cc12)C1CC1 = 500 to 3000 nM
• CC(C)(C)Cn1cc([C@H](NS(=O)(=O)C2CC2)C(F)(F)F)c2ccc(Br)c(F)c21 = 500 to 3000 nM
• O=S(=O)(NCc1cn(CC2CCCC2)c2cc(-c3ccccc3C(F)(F)F)c(F)cc12)C1CC1 = < 500 nM
• CC(C)(C)Cn1cc(CC2(NS(=O)(=O)C3CC3)CC2)c2ccc(-c3ccccc3C(F)(F)F)cc21 = > 3000 nM
• CC(C)Cn1cc(CCNS(=O)(=O)N(C)C)c2ccc(O)cc21 = > 3000 nM
